Below: a set of entries, each annotated with reported Bliss excess.
Test system: NH-12 (Neuroblastoma);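 also: after 72 h of two-drug dosing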
Experiment: Bliss excess, mean over the matrix (fraction); higher = more synergy
MEASUREMENT TYPE: Bliss excess

Cc1c2c(nn1C)CSCc1cc(n(C)n1)CSc1cc(c3ccccc3c1)OCCCc1c(C(=O)O)n(C)c3c-2c(Cl)ccc13 [AZD5991] + C[C@@H](Nc1cc(F)cc(F)c1)c1cc(C(=O)N(C)C)cc2c(=O)cc(N3CCOCC3)oc12 [AZD8186] (first compound max 1 µM, 7x7, partner max 3 µM)
0.0311
COc1nnc2ccc(N3CCC(c4ccc(OCCN5CCN(C)C(=O)[C@H]5C)cc4)CC3)nn12 [AZD5153] + CN(CC[C@H](CSC1=CC=CC=C1)NC2=C(C=C(C=C2)S(=O)(=O)NC(=O)C3=CC=C(C=C3)N4CCC(CC4)[C@H](C5=CC=CC=C5C6=CC=C(C=C6)Cl)O)S(=O)(=O)C(F)(F)F)CCO [AZD4320] (first compound max 1 µM, 7x7, partner max 1 µM)
-0.0413
CN(CCO)CC[C@H](CSc1ccccc1)Nc1ccc(S(=O)(=O)NC(=O)c2ccc(N3CCC([C@@H](O)c4ccccc4-c4ccc(Cl)cc4)CC3)cc2)cc1S(=O)(=O)C(F)(F)F [AZD4320] + C=CCn1c(=O)c2cnc(Nc3ccc(N4CCN(C)CC4)cc3)nc2n1-c1cccc(C(C)(C)O)n1 [AZD1775] (first compound max 1 µM, partner max 1 µM)
-0.0149
